- System: primary human hepatic stellate cells (donor 1)
- experimentalProtocol: scaled lipid accumulation score (0 = DMSO-like, 1 = nortriptyline-like); higher = stronger HSC inactivation (lipid re-accumulation), active = hit call of the paper
- conditionLabel: library stock concentration: 3.33 mM; 48 h
Among all 5,800 compounds or so, about 620 (11%) showed activity. The sample holds actives, similar compounds and a random draw of the others, so the mix is not that of the screen.
Collected scaled lipid accumulation score values appear next to each entry.

In the examples that follow, each entry is paired with its recorded scaled lipid accumulation score.
compound	experimentalValue
CC(C=CC(=O)NO)=CC(C)C(=O)c1ccc(N(C)C)cc1 (centres undefined)	0.515 (inactive)
NC1(C(=O)N[C@@H](CCO)c2ccc(Cl)cc2)CCN(c2ncnc3[nH]ccc23)CC1	≤ -0.009 (inactive)
Cn1cc(-c2cnn3c(N)c(Br)c([C@@H]4CCCNC4)nc23)cn1	≤ 0 (inactive)
C[C@@H]1C[C@H]2[C@@H]3CCC4=CC(=O)C=C[C@]4(C)[C@@]3(Cl)[C@@H](O)C[C@]2(C)[C@@]1(OC(=O)c1ccco1)C(=O)CCl [Mometasone furoate]	0.086 (inactive)
N[C@@H](Cc1cc(I)c(Oc2cc(I)c(O)c(I)c2)c(I)c1)C(=O)O	≤ 0 (inactive)

Task: # return scaled lipid accumulation score of CCOC(=O)c1cnc2ccc(-c3cncc(NS(=O)(=O)c4ccccc4)c3)cn12 (system: primary human hepatic stellate cells (donor 1))
Output: 0.492 (inactive)

Task: # return scaled lipid accumulation score of Cc1ccc(F)c(NC(=O)Nc2ccc(-c3cccc4[nH]nc(N)c34)cc2)c1 (system: primary human hepatic stellate cells (donor 1))
Output: ≤ 0 (inactive)

Task: # return scaled lipid accumulation score of O=C[C@H](O)[C@@H](O)[C@H](O)CO (system: primary human hepatic stellate cells (donor 1))
Output: ≤ 0 (inactive)

----------
- Tested on: primary human hepatic stellate cells (donor 1)
- experimentalProtocol: scaled lipid accumulation score (0 = DMSO-like, 1 = nortriptyline-like); higher = stronger HSC inactivation (lipid re-accumulation), active = hit call of the paper
- conditionLabel: library stock concentration: 3.33 mM; 48 h
Where a name gives a salt, the structure may show the parent alone. Screen size: about 5,800 compounds; about 620 (11%) showed activity.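 Rule for the calls: active = score above a cut-off or among the top three wells of a plate; in these data no inactive exceeds 0.85.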 The sample holds actives, similar compounds and a random draw of the others, so the mix is not that of the screen.
Please reply with one of these outcomes: True = active, False = inactive

Please review the following examples before continuing.
>>> print(df.to_string())
                                   molecule                               studytarget  group
0  CC(C)C[C@H](NC(=O)[C@H]1O[C@@H]1C(=O)O)C(=O)NCCCCN=C(N)N  primary human hepatic stellate cells (donor 1)  False
1        COc1cc2ncnc(Nc3ccc(Cl)cc3F)c2cc1OC  primary human hepatic stellate cells (donor 1)  False
2  NC1=N[C@@]2(c3cc(NC(=O)c4ccc(F)cn4)ccc3F)COC[C@H]2CS1  primary human hepatic stellate cells (donor 1)  False

Task: Field: outcome | Entry: CC1(C)CC(=O)c2c(C(F)(F)F)nn(-c3ccc(C(N)=O)c(N[C@H]4CC[C@H](O)CC4)c3)c2C1
Output: False

Task: Field: outcome | Entry: CCNC(=O)c1noc(-c2cc(Cl)c(O)cc2O)c1-c1ccc(OC)cc1
Output: False

Task: Field: outcome | Entry: CCC[C@H](Nc1nc(-c2ccc(NC(=O)NCC)c(OC)c2)ncc1C)c1cccnc1
Output: False

Task: Field: outcome | Entry: COc1cc2c(Nc3ccc(Br)cc3F)ncnc2cc1OCC1CCN(C)CC1 [Vandetanib (ZD6474)]
Output: True

Task: Field: outcome | Entry: CN(C)CCC(c1ccc(Cl)cc1)c1ccccn1 (centres undefined) [Chlorpheniramine Maleate]
Output: False

Task: Field: outcome | Entry: COc1cc2ncnc(Nc3ccc(O)c(Br)c3)c2cc1OC
Output: False
